STUDY SYSTEM: human muscarinic M2 receptor (Homo sapiens)
Sequence (P08172 whole entry): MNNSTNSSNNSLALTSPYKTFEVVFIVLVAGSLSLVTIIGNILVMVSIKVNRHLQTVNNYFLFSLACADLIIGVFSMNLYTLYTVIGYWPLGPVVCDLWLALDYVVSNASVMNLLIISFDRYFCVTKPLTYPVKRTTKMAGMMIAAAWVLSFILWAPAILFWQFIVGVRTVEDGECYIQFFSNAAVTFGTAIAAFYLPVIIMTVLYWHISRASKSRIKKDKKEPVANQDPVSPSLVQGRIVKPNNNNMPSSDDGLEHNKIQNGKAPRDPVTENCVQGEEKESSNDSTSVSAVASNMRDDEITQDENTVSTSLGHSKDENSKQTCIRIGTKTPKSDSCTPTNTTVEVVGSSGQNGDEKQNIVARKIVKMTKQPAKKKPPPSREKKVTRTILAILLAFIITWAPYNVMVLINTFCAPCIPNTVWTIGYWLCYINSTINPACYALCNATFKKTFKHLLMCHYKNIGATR
MEASUREMENT PROTOCOL: Alphascreen Surefire phospho-ERK1/2 functional assay, M2
Type: cell-based
COND: CHO cells stably expressing human M2, read-out: pEC50 M2 (converted)
Property: EC50; scope: individual compounds

CCOC(=O)N1CCC2(CC(N3CCC(N(C(=O)C(F)(F)F)C4CC4)CC3)C2)C1 (single isomer, unassigned) [2-4 Isomer 2]: > 20 µM
CCOC(=O)N1CCC2(CC(N3CCC(C(C)N(C(=O)CC)C4CC4)CC3)C2)C1 (single isomer, unassigned) [2-14 Isomer 2]: > 20 µM
CCOC(=O)N1CCC2(CC(N3CCC(N(Cc4ccccc4)C(C)=O)CC3)C2)C1 (single isomer, unassigned) [2-35 Isomer 2]: > 20 µM

Problem: Entry under review: CCOC(=O)N1CCC2(CC(N3CCC(N(Cc4ccccc4)CC(F)(F)F)CC3)C2)C1 (single isomer, unassigned) [2-59 Isomer 2] . Reported EC50?
Solution: > 20 µM

Problem: Entry under review: CCOC(=O)N1CCC2(CC(N3CCC(N(C=O)CC)CC3)C2)C1 (single isomer, unassigned) [2-16 Isomer 2] . Reported EC50?
Solution: > 20 µM

Problem: Entry under review: CCOC(=O)N1CCC2(CC(N3CCC(N(CC4CC4)C(C)=O)CC3)C2)C1 (single isomer, unassigned) [2-20 Isomer 2] . Reported EC50?
Solution: > 20 µM

Problem: Entry under review: CCOC(=O)N1CCC2(CC(N3CCC(N(CC(C)C)C(C)=O)CC3)C2)C1 (single isomer, unassigned) [2-19 Isomer 2] . Reported EC50?
Solution: > 20 µM

Problem: Entry under review: [2H]C([2H])(C)OC(=O)N1CCC2(CC(N3CCC(N(CC)C(C)=O)CC3)C2)C1 (single isomer, unassigned) [2-38 Isomer 2] . Reported EC50?
Solution: > 20 µM

Problem: Entry under review: CCOC(=O)N1CCC2(CC(N3CCC(N(C(=O)OC)C4COC4)CC3)C2)C1 (single isomer, unassigned) [2-47 Isomer 2] . Reported EC50?
Solution: 0.501 µM

Problem: Entry under review: CCOC(=O)N1CCC2(CC(N3CCC(N(OC)C(C)=O)CC3)C2)C1 (single isomer, unassigned) [2-32 Isomer 2] . Reported EC50?
Solution: > 20 µM

Problem: Entry under review: CCOC(=O)N1CCC2(CC(N3CCC(N(CC4(OC)CCC4)C(C)=O)CC3)C2)C1 (single isomer, unassigned) [2-30 Isomer 2] . Reported EC50?
Solution: 5.01 µM

* * *

STUDY SYSTEM: human muscarinic M4 receptor (Homo sapiens)
Construct: expressed in transfected cells
Sequence (P08173 1-479): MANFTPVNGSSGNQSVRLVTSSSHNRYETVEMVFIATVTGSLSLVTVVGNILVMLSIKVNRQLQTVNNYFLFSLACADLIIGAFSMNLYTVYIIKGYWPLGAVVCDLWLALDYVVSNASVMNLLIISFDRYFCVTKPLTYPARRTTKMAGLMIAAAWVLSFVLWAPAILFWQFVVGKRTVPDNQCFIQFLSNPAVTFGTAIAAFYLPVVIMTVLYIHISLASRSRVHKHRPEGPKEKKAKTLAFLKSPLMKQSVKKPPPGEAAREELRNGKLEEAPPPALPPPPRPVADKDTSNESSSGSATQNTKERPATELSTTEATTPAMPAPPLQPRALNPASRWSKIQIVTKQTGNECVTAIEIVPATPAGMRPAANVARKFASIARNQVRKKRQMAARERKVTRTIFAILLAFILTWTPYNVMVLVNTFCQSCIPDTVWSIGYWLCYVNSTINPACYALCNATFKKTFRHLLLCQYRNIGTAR
MEASUREMENT PROTOCOL: Alphascreen Surefire phospho-ERK1/2 functional assay, M4
Type: cell-based
COND: CHO, read-out: % Emax cf. ACh (M4), CHO cells stably expressing human M4; phospho-ERK1/2; relative to ACh
ENDPOINT NAME: Emax (%)
Write the value in % as a bare number.

CCOC(=O)N1CCC2(CC(N3CCC(N(CC)C(=O)OCC)CC3)C2)C1 (single isomer, unassigned) [2-40 Isomer 2]: 110
CCOC(=O)N1CCC2(CC(N3CCC(N(CC(C)(F)F)C(C)=O)CC3)C2)C1 (single isomer, unassigned) [2-27 Isomer 2]: 105
CCOC(=O)N1CCC2(CC(N3CCC(N(OC)C(C)=O)CC3)C2)C1 (single isomer, unassigned) [2-32 Isomer 2]: 115
CCOC(=O)N1CCC2(CC(N3CCC(C(C)N(C(=O)CC)C4CC4)CC3)C2)C1 (single isomer, unassigned) [2-14 Isomer 2]: 108
CCOC(=O)N1CCC2(CC(N3CCC(N(Cc4ccon4)C4CC4)CC3)C2)C1 (single isomer, unassigned) [2-10 Isomer 2]: 122

Problem: Entry under review: CCOC(=O)N1CCC2(CC(N3CCC(N(CC)CCC#N)CC3)C2)C1 (single isomer, unassigned) [2-55 Isomer 2] . Reported Emax?
Solution: 65
